# ASSAY_TEXT: chemical genetic growth profiling, strain panel (AID 1159580);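 further: tested at 20 µM; growth read once vehicle control cultures reached saturation at 30 °C; lower values mean less growth of the strain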
# REPORTED_CONDITIONS: S. cerevisiae deletion strains, growth OD, locus YNL250W, strain rad50
About 2,000 (36%) of roughly 5,500 compounds were called active. About 18% were inconclusive and are not listed. No stated cut-off is given here; in the data, active means normalized growth mostly below about 0.91 (no sharp cut-off); inconclusive means no clear call, values can overlap the other calls; inactive means mostly above about 0.92. The list shows a part of the results.
Entry note: the call must match one of true (active), false (inactive)

Solved entries:
>  <STRUCTURE_NOTATION>
OCCN(CCO)c1nc(N2CCCCC2)c2nc(N(CCO)CCO)nc(N3CCCCC3)c2n1

>  <LABEL_VALUE>
false

$$$$
>  <STRUCTURE_NOTATION>
O=C(O)c1cc(=O)c2ccc(Cl)cc2[nH]1

>  <LABEL_VALUE>
false

$$$$
>  <STRUCTURE_NOTATION>
Oc1c(Cl)c(Cl)c(Cl)c(Cl)c1Cl

>  <LABEL_VALUE>
true

$$$$
>  <STRUCTURE_NOTATION>
N=c1nc(N2CCCCC2)cc(N)n1O

>  <LABEL_VALUE>
false

$$$$
>  <STRUCTURE_NOTATION>
C/C=C(/C(=C/C)c1ccc(O)cc1)c1ccc(O)cc1

>  <LABEL_VALUE>
true

$$$$

Here is the next item to consider.
Q: // outcome(item) with item = CN=C(NC#N)NCCSCc1nc[nH]c1C
Ans: false
